Target or test system: T1, hPD-1 (Sino Biological Inc., Catalog No.: 10377-H03H-B) (human, UniProt Q15116 25-167)
T1 construct: Bought protein; also called human PD-1; purified hPD-1
T1 sequence (Q15116 25-167): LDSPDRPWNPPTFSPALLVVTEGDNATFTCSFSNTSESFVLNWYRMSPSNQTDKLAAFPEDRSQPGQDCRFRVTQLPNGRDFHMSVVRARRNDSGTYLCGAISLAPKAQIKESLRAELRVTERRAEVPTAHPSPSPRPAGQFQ
Procedure text: ELISA, hPD-1 coated on the plate
Readout name: pEC50
The read-out pEC50 is expressed as -log10 of concentration in moles per litre.

Below, 2 binders whose answers are already recorded.
antibody CL5 (antibody, human IgG4, V domains shown) VH: QVQLVQSGVEVKKPGASVKVSCKASGYTFTNYYMYWVRQAPGQGLEWMGGINPSNGGTNFNEKFKNRVTLTTDSSTTTAYMELKSLQFDDTAVYYCAARDYRFDMGFEYWGQGTTVTVSS VL: EIVLTQSPATLSLSPGERATLSCRASKGVSTSGYSYLHWYQQKPGQAPRLLIYLASYLESGVPARFSGSGSGTDFTLTISSLEPEDFAVYYCQHSYDLPLTFGGGTKVEIK :: 9.40
antibody CL7 (antibody, human IgG4, V domains shown) VH: QVQLVQSGVEVKKPGASVKVSCKASGYTFTNYYMYWVRQAPGQGLEWMGGINPSNGGTNFNEKFKNRVTLTTDSSTTTAYMELKSLQFDDTAVYYCAARDYRFDMGFEFWGQGTTVTVSS VL: EIVLTQSPATLSLSPGERATLSCRASKGVSTSGYSYLHWYQQKPGQAPRLLIYLASYLESGVPARFSGSGSGTDFTLTISSLEPEDFAVYYCQHSYSFPLTFGGGTKVEIK :: 9.46

Switching to the query record.
Exercise: Param item = antibody CL2 (antibody, human IgG4, V domains shown) VH: QVQLVQSGVEVKKPGASVKVSCKASGYTFTNYYMYWVRQAPGQGLEWMGGINPSNGGTNFNEKFKNRVTLTTDSSTTTAYMELKSLQFDDTAVYYCAARDYKFDMGFEYWGQGTTVTVSS VL: EIVLTQSPATLSLSPGERATLSCRASKGVSTSGYSYLHWYQQKPGQAPRLLIYLASYLESGVPARFSGSGSGTDFTLTISSLEPEDFAVYYCQHSYGLPLTFGGGTKVEIK ; retrieve measured pEC50.
Solution: 9.35
